Molecular target: T1, B-cat-Halo (beta-catenin HaloTag construct expressed in HEK293 cells) (UniProt P35222 1-781)
T1 sequence (looked up): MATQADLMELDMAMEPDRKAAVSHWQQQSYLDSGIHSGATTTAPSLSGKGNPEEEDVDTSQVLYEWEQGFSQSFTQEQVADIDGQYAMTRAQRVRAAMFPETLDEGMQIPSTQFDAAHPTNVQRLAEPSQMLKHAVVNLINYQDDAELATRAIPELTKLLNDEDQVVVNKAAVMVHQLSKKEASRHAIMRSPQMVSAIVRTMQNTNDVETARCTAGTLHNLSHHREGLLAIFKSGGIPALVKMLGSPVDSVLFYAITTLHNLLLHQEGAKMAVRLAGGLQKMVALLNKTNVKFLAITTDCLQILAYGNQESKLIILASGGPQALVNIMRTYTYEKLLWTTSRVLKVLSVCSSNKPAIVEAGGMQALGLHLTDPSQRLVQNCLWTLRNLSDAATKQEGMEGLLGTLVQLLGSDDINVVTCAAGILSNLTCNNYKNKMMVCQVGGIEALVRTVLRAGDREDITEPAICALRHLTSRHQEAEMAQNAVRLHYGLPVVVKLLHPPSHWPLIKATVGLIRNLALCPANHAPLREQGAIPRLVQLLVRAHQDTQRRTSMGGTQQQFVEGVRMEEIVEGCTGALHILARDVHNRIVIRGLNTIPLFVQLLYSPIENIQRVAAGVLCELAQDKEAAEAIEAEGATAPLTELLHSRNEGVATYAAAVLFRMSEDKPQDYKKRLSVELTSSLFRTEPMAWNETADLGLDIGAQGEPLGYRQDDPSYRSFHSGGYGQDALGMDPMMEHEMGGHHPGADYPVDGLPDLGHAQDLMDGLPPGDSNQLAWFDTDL
Test: cell-based or functional assay
Starred links: 1 amine or outer side, 2 acyl side, 3 side chain; linkers in the order of their positions; H or OH if unused. Positions of bridges follow the written chain, without caps; N, C: chain ends. Non-standard residues stand in square brackets, D forms with d. Primed or numbered codes have the meaning given here. PyrS2″ = (S)-3-amino-1-((pent-4-en-1-yloxy)carbonyl)pyrrolidine-3-carboxylic acid (stapling residue), C=CCCCOC(=O)N1CC[C@@](N[*:1])(C(=O)[*:2])C1; B5(3) = 2,2-bis(4-pentenyl)glycine (stitching residue), C=CCCCC(CCCC=C)(N[*:1])C(=O)[*:2]; Bta = N[C@@H](Cc1csc2ccccc12)C(=O)O; αAllylPro = C=CC[C@@]1(C(=O)O)CCCN1; tBuAla = CC(C)(C)C[C@H](N)C(=O)O; 3Thi = N[C@@H](Cc1ccsc1)C(=O)O; Cit = NC(=O)NCCC[C@H](N)C(=O)O; hSer = N[C@@H](CCO)C(=O)O
Consider the following binders and their measured NanoBRET Abs IC50 readings.
Please state the number and follow it with the unit.

QUERY: Entry Ac-[αAllylPro]D[tBuAla][B5(3)]DDAAF[Cit][PyrS2″][3Thi][Bta]Q-NH2 (staple 1-4, 4-11) [I-805] has what NanoBRET Abs IC50?
RESULT: 18.5 µM

QUERY: What about Ac-[αAllylPro]D[tBuAla][B5(3)]DDAAF[hSer][PyrS2″][3Thi][Bta]Q-NH2 (staple 1-4, 4-11) [I-803] ?
RESULT: 9.6 µM
